Values compiled from ChEMBL document CHEMBL1201862.

Tested on: SF-268
Assay Notes: NCI tumour cell line growth inhibition, 48 h
The source made the active and inactive calls. Rule as the data show it: active = GI50 up to about 1.1 µM and inactive = higher.
// classify into 1 for active, -1 for inactive

NC(Cc1c[nH]c2ccc([N+](=O)[O-])cc12)C(=O)O (configuration not stated): -1
CN(Cc1cnc2nc(N)nc(N)c2n1)c1ccc(C(=O)NC(CO)CCCO)cc1 (configuration not stated): -1
C/C(=N\O)c1sc(-n2nc(-c3ccccc3)cc2-c2ccccc2)nc1C: -1

Q. Please let me know the test result on file for "CN(C)CCn1c(=O)c2ccc(NCCCN(C)CCCNc3ccc4c(=O)n(CCN(C)C)c(=O)n5c6ccc(O)cc6c(=O)c3c45)c3c(=O)c4cc(O)ccc4n(c1=O)c23" .
A. 1

Q. Record lookup: outcome of this test for "COc1cc(/C=[N+](\[O-])c2ccccc2Cl)ccc1OC(=S)S" ?
A. -1

Q. What did this assay record as the result for "CCSc1s/c(=N/c2ccc(/N=c3\sc(C)c(SC)s3)cc2)sc1-c1ccc(C)cc1" ?
A. -1

Q. For CCOC(=O)N[C@@H]1C2CC(=O)C(O2)[C@@H]1OC (some centres not stated) , which call appears in the assay record?
A. -1

Q. What call does the record list for "O=C1NC(NNc2ccccc2)=N/C1=C\c1ccco1" ?
A. -1

Q. Given "Cn1c(=O)c2nc(CSCc3ccccc3)[nH]c2n(C)c1=O" , state the outcome it received in this test.
A. -1

Q. // return assay outcome for "Nc1ccccc1OCCCOc1ccccc1N"
A. -1

Q. Recorded test call requested for "O=C(CCl)Nc1ccc(C(=O)N/N=C/c2ccc(Cl)cc2)cc1"
A. -1

Q. Give the logged outcome of this assay for the following compound: Cc1c(N)nc([C@H](CC(N)=O)NC[C@H](N)C(N)=O)nc1C(=O)N[C@H](C(=O)N[C@H](C)[C@@H](O)CC(=O)N[C@H](C(=O)NC(O[C@@H]1O[C@@H](C)[C@@H](N)[C@@H](O)[C@H]1O)C(O)c1nc(-c2nc(C(=O)NCCCCN)cs2)cs1)[C@@H](C)O)[C@@H](O[C@@H]1O[C@@H](CO)[C@@H](O)[C@H](O)[C@@H]1O[C@H]1O[C@H](CO)[C@@H](O)[C@H](OC(N)=O)[C@@H]1O)c1c[nH]cn1 (some centres not stated)
A. -1

Q. // param item: "COc1ccc(Oc2cnn(C(Br)(Br)C(C)=O)c(=O)c2Br)cc1" ; yields the recorded call
A. -1

Q. What outcome does the record of this test show for COc1cc(C(=O)N2CCc3c([nH]c4c([N+](=O)[O-])c(OC)ccc34)C2C)cc(OC)c1OC (configuration not stated) ?
A. -1

Q. Which result was noted for this compound in the test: CC1=NN(c2cccc(Cl)c2)C2(SCC(=O)N2c2nc3ccccc3s2)/C1=C\c1ccc(Cl)cc1 (configuration not stated)
A. -1

Q. What classification did "CN(C)C(=S)/N=c1\ssc(=S)n1Cc1cccs1" end up with in this test?
A. -1

Q. Tell me the assay call for "CCOC(=O)c1sc2nc(SC)nc3c2c1N=CN3c1ccccc1Cl" please.
A. -1
